system.name: T1, human TREM2 (human, UniProt Q9NZC2 19-174, limits assumed)
T1 construct: also called triggering receptor expressed on myeloid cells 2
T1 sequence: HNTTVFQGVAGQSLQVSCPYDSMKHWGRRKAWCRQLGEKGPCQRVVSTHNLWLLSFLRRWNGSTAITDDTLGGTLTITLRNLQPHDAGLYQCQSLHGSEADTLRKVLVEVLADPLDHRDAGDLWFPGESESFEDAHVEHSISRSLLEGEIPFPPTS
test.name: 2nd screen 2 nM
attribute.measured: Binding Signal (fold over 6E7 Parental antibody) (fold)
Provide only the numeric value, understood in fold.

The following binders have reported results that may help.
>>> measured("V39 (antibody, V domains shown) VH: EVQLVQSGAEVKKPGESLKISCKGSGYSFGSYWIAWVRQMPGKGLEWMGIIYPGDSDTRYNPSFQGQVTISADKSISTAYLQWSSLKASDTAMYFCARGRTFYYDSSDYFDYWGQGTLVTVSS VL: DIQMTQSPSSVSASVGDRVTITCRASQGISSWLAWYQQKPGKAPKLLIYAASSLVNGVPSRFSGSGSGTDFTLTISSLQPEDFATYFCQQADSSPRTFGQGTKLEIK")
5.11
>>> measured("V41 (antibody, V domains shown) VH: EVQLVQSGAEVKKPGESLKISCKGSGYSFTSYWIAWVRQMPGKGLEWMGTIYPGDSDTRYSPSFQGQVTISADKSISTAYLQWSSLKASDTAMYFCARQRTFYYDSSDYFDYWGQGTLVTVSS VL: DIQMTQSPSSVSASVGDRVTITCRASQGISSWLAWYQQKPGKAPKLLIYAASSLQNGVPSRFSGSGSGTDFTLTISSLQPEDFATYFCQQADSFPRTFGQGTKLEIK")
0.58

Lab note: next binder to report on.
Look up Binding Signal (fold over 6E7 Parental antibody): V74 (antibody, V domains shown) VH: EVQLVQSGAEVKKPGESLKISCKGSGYSFASYWIAWVRQMPGKGLEWMGIIYPGDSDVRYSPSFQGQVTISADKSISTAYLQWSSLKASDTAMYFCARGRTFYYDSSDYFDYWGQGTLVTVSS VL: DIQMTQSPSSVSASVGDRVTITCRASQGISSWLAWYQQKPGKAPKLLIYAASSLQLGVPSRFSGSGSGTDFTLTISSLQPEDFATYFCQQADSFPRTFGQGTKLEIK
2.54
